# run-description: NCI Yeast Anticancer Drug Screen. Data for the rad50 strain (AID 155);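 further: 0% = growth of vehicle-only cultures of the same strain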
# cond: S. cerevisiae rad50 strain growth inhibition; at 5.0 µM (retest, dose inferred, filed as 0.5); active compounds read high
# Protocol: Growth inhibition of yeast strains with defined genetic alterations is measured as a screen for potential anti-cancer activity. Selected strains with alterations in DNA damage repair or cell cycle control were exposed to compounds and growth inhibition was measured relative to vehicle treated controls. The strain used in this assay is rad50
Compounds without any hit were thinned out: in the full panel of roughly 79,000, 15% have a hit.
Classification by growth inhibition follows these ranges: L: < 10%; M: ≥ 10% and < 30%; H: ≥ 30%

Cc1c2cccc(Sc3ccccc3)c2c2c3c(cccc13)[S+](c1ccccc1)C2 (stereo unspecified); H
COc1cc([C@@H]2c3cc4c(cc3[C@H](OC3OC5COC(C(C)C)OC5C(O)C3O)C3COC(=O)[C@@H]32)OCO4)cc(OC)c1O (stereo partly specified); M
CC12C(=O)OC(=O)C(c3ccccc31)c1ccccc12; H
Cc1ccc2c3ccc4c(c3n(C)c2c1)C(=O)C=CC4=O; L
CC[N+](CC)(CC)c1ccccc1; M

Task: Assign a category based on measured growth inhibition for O=C1c2cccnc2C(=O)C2C3C=CC(C3)C12 (stereo unspecified) and give only the class name.
Output: M

Task: Which growth inhibition band matches CCOC(=O)C1N=[N+](c2ccccc2)C(=O)/C1=C\n1c(=S)[nH]c2ccc([N+](=O)[O-])cc21 (stereo unspecified) ?
Output: M

Task: Lab note: sort O=C(O)C1CC(c2ccccc2)=NN1c1ccccc1 (stereo unspecified) into the matching growth inhibition band.
Output: M

Task: Please indicate the class for CN(C)[C@@H]1C(=O)C(C(N)=O)=C(O)[C@@]2(O)C(=O)C3=C(O)c4c(O)cccc4C[C@H]3C[C@@H]12 based on its growth inhibition.
Output: L

Task: Could you place COC(=O)/C=C(/C(=O)OC)C(Cl)(Cl)Cl in its proper category? Many thanks.
Output: M

----------
# run-description: NCI Yeast Anticancer Drug Screen. Data for the mec2-1 strain (AID 157)
# cond: S. cerevisiae mec2-1 strain, at 100.0 µM, active compounds read high
About 79,000 compounds went through this panel and 15% of them were active in at least one assay; those are over-represented in the sample as a whole.
Below, each entry is listed alongside its reported growth inhibition.
Write down the numeric answer in % and omit the unit.

Below, each entry is followed by its recorded growth inhibition result.
CCOc1ccccc1N=Cc1c2ccccc2cc2ccccc12; 98
COC(=O)/C=C(/CC(=O)OC)C(=O)OC; -3
O=C(NNc1ccccc1)C(O)C(O)C(O)C(O)C(O)CO (stereo not given); 82
Cc1ccc(NCCNCCO)c2c(=O)c3cc(O)ccc3sc12; 58
CCOC(=O)c1cc([N+](=O)[O-])c(Sc2ncnc3nc[nH]c23)c([N+](=O)[O-])c1; 91
COc1cc2cc3c4cc(OC)c(OC)cc4cc[n+]3c(C)c2cc1OC; -5
CCCCOCn1c(=O)[nH]c(=O)c2cc(Br)ccc21; -5
O=C(NNc1ccccc1)c1ccc(Cl)c(Cl)c1; 23
CC(C)CN(CC(C)C)C(=O)c1ccc(Cl)c(Cl)c1; 99
CCc1cc(O)c(Cl)c(C)c1Cl; 73

Task: Param item = COc1ccc(NC(=O)CC2SC(=Nc3ccccc3C)NC2=O)c([N+](=O)[O-])c1 (stereo not given) ; retrieve measured growth inhibition.
Output: 97

Task: Requested field: growth inhibition. Item: CC1=C(C(=O)NCc2ccccc2)C(c2ccccc2)C(C(=O)NCc2ccccc2)=C(C)N1
Output: 94

Task: Data request, read-out growth inhibition, for CCOC(=O)[C@H]1Nc2ccc(OC)cc2C2c3ccccc3CC21 (stereo not given in full)
Output: 88

Task: Which value of growth inhibition has been reported for CC(O)=NC(Cc1ccc2ccccc2c1)C(O)=NC(Cc1ccc(Cl)cc1)C(O)=NC(Cc1c[nH]c2ccccc12)C(O)=NC(CO)C(O)=NC(Cc1ccc(O)cc1)C(O)=NC(CCCN=C(N)N)C(O)=NC(CC(C)C)C(O)=NC(CCCN=C(N)N)C(=O)N1CCCC1C(O)=NC(C)C(=N)O (stereo not given) in the records?
Output: 3

Task: Need growth inhibition, item CCN(CC)CCN(C)CCc1ccc(Br)cc1
Output: 78

Task: Quick one: growth inhibition for O=C(CC(=O)n1nc(-c2ccccc2)c(N=Nc2ccc(Cl)cc2)c1-c1ccccc1)Nc1cccc(Cl)c1 ?
Output: -4

Task: Item under review: CC(C)(C)[Si](C)(C)OCC1CCC(n2cnc3c(NC(=O)c4ccccc4)ncnc32)O1 (stereo not given) . Reported growth inhibition?
Output: 0
